All figures here come from PubChem BioAssay.

As shown below, each of these compounds has a reported viability value.
# test.protocol: growth suppression of beta-catenin knockout HCT116, pilot screen, human colon tumor cells (AID 823);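 further: 0% = wells killed by 20 µM Hyamine and 100% = untreated DMSO cell wells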
# test.context: CellTiter-Glo, 60 h, at 10 µM, active compounds read low
Results filed as inconclusive are left out.
Use % as the unit, but write only the number.

Worked cases, answers included:
compound | units.symbol | viability
CCCC(=O)Nc1nc(-c2ccc3c(c2)OCCO3)cs1 | % | 77.9
CC(=O)Nc1cc2ccc(OC(C)=O)cc2oc1=O | % | 107
CC1(C)CC(=O)C=C(NC2CC(C)(C)NC(C)(C)C2)C1 | % | 102

Let us examine a further case.
*Q* Data request, read-out viability, for CCOC(=O)Cn1c(=O)oc2cc(S(=O)(=O)N3CCc4ccccc43)ccc21
*A* 91.8

---

# test.protocol: viability gain of MRP-1-high H69AR cells under doxorubicin, pilot screen, MRP-1 activator project, CellTiter-Glo, duplicate (AID 807);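 further: compound pretreatment 18-22 h then 72 h combined with doxorubicin; 0% = doxorubicin alone and 100% = vehicle without doxorubicin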
# test.context: H69AR viability with doxorubicin, CellTiter-Glo luminescence; at 10 µM; active compounds read high
recorded.metric: viability increase (%)
Use % as the unit, but write only the number.

Worked cases, answers included:
compound | recorded.metric | observed.value
Cc1ccc(NC(=O)CSc2nnc(Cc3cccn3C)n2-c2ccc(F)cc2)c(C)c1 | viability increase | -3.99
CC1(C)Cc2c(c(N3CCOCC3)nc3sc(C(=O)N4CCCCC4)c(N)c23)CO1 | viability increase | -4.48
O=C(Cc1ccccc1)Nc1c(C(=O)N2CCOCC2)cnn1-c1ccccc1 | viability increase | -1.59
CCOc1cccc(-c2nc(C(N)=O)c3[nH]c(=O)n(-c4cccc(Cl)c4)c3n2)c1O | viability increase | -2.06
CCOc1ccc2ccccc2c1C(=O)Nc1cc(=O)n(C)c(=O)n1C | viability increase | 0.11

*Q* Data request, read-out viability increase, for COc1ccc(-n2nc3c(c2NC(=O)C24CC5CC(CC(C5)C2)C4)CS(=O)C3)cc1 (stereo unspecified)
*A* -0.78

*Q* Same for O=C(O)CCC(=O)c1ccc2c(c1)OCCO2
*A* -1.32

*Q* Same for c1ccc(-c2nnc(-c3ccccn3)nn2)nc1
*A* 0.07

*Q* Same for Cn1c(=O)oc2cc(S(=O)(=O)NCc3ccccn3)ccc21
*A* 0.44

*Q* Same for CCOc1ccccc1C(=O)Nc1nnc(C(C)C)s1
*A* -4.41

*Q* Same for O=C(Cc1c(F)cccc1Cl)c1ccc(O)cc1O
*A* -0.88

---

As shown below, each of these molecules has a reported inhibition value.
# test.protocol: inhibitors of the yeast RAM network, pilot screen, dse1pr::URA3 reporter, 5-FOA selection (AID 869);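 further: 0% = DMSO wells with no growth and 100% = 10 µM 1-NA-PP1 with full growth; RAM network block rescues cells from 5-FOA so hits raise OD615 growth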
# test.context: S. cerevisiae dse1pr::URA3 5-FOA growth, OD615, 2 d; at 10 µM; active compounds read high; strain carries analog-sensitive mutant Cbk1 kinase
Use % as the unit, but write only the number.

Worked cases, answers included:
molecule | inhibition [%]
COCCOC(=O)C1=C(C)NC(=O)NC1c1ccc(OC(=O)c2ccco2)c(OC)c1 (stereo unspecified) | 2.5
CCC1(C(=O)O)NC(c2cc(OC)ccc2O)C2C(=O)N(Cc3ccccc3)C(=O)C21 (stereo unspecified) | 0.37
Nc1nnc(N2CCc3ccccc32)s1 | 0.805

*Q* Data request, read-out inhibition, for Cn1c(NC(=O)c2ccc(C(C)(C)C)cc2)cc(=O)n(C)c1=O
*A* 1.97

*Q* Same for O=S(=O)(c1ccc(Oc2ccc(S(=O)(=O)N3CCOCC3)cc2)cc1)N1CCOCC1
*A* 4.01

*Q* Same for CCCCCCN=CC1=C(O)C(C(=O)OC)C(C)(C)CC1=O (stereo unspecified)
*A* 0.93

*Q* Same for O=C(Cn1ncc2c1-c1ccccc1OC2)Nc1ccc(S(=O)(=O)N2CCCCC2)cc1
*A* 0.655

*Q* Same for COc1ccc(-c2nnc3ccc(SCC(=O)N4CCCC4)nn23)cc1
*A* 1.44

*Q* Same for CCC(C)NC(=O)Cn1cc2c(n1)CCC(C)C2 (stereo unspecified)
*A* 0.14

*Q* Same for CCOC(=O)c1ccc(NC(=O)CSc2nc(C)cc(=O)[nH]2)cc1
*A* -0.79

*Q* Same for COc1ccccc1NC(=O)NCCN1C(=O)C2C3C=CC(C3)C2C1=O (stereo unspecified)
*A* 1.71

---

# test.protocol: viability gain of MRP-1-high H69AR cells under doxorubicin, pilot screen, MRP-1 activator project, CellTiter-Glo, duplicate (AID 807);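 further: compound pretreatment 18-22 h then 72 h combined with doxorubicin; 0% = doxorubicin alone and 100% = vehicle without doxorubicin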
# test.context: H69AR viability with doxorubicin, CellTiter-Glo luminescence; at 10 µM; active compounds read high
As shown below, each of these molecules has a reported viability increase value.
Use % as the unit, but write only the number.

Worked cases, answers included:
molecule | viability increase (%)
COc1ccccc1NC=C1C(=O)OC(C)(C)OC1=O | -2.6
CCSc1nnc(Cn2c(=O)sc3ccccc32)n1-c1ccccc1C | -1.61
CCOC(=O)c1ccc(Nc2nnc(C(C)(C)C)c(=O)[nH]2)cc1 | -7.93

*Q* Data request, read-out viability increase, for COc1ccc(N2CCN(C3CC(=O)N(C)C3=O)CC2)cc1 (stereo not drawn)
*A* -0.79

*Q* Same for O=C(NCCN1CCOCC1)NC1(C(F)(F)F)Oc2ccccc2O1
*A* -4.99

*Q* Same for COCCNC(=O)COc1ccccc1Cl
*A* -1.02

*Q* Same for CCOC(=O)c1c(NC(=O)c2cccs2)sc2c1CCCC2
*A* -4.82

*Q* Same for COc1cc(S(=O)(=O)NCc2ccc3c(c2)OCO3)ccc1Cl
*A* -2.38

*Q* Same for Cc1cc2oc(C(=O)Nc3cccnc3)c(C)c2cc1C
*A* -1.32

*Q* Same for COc1cc(OC)cc(C(=O)OCn2nnc3ccccc3c2=O)c1
*A* -0.87

---

# test.protocol: growth suppression of beta-catenin knockout HCT116, pilot screen, human colon tumor cells (AID 823);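 further: 0% = wells killed by 20 µM Hyamine and 100% = untreated DMSO cell wells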
# test.context: CellTiter-Glo, 60 h, at 10 µM, active compounds read low
Results filed as inconclusive are left out.
recorded.metric: viability (%)
Use % as the unit, but write only the number.

Worked cases, answers included:
compound | observed.value
CCn1cc(C(=O)NC2CCCCCC2)c(=O)c2cc(S(=O)(=O)N3CCCCC3)ccc21 | 72.2
CCN1CCN(C(c2ccccc2)c2sc3nc(C)nn3c2O)CC1 (stereo not given) | 102
Cc1n[nH]c(C)c1S(=O)(=O)N(CC(=O)Nc1ccc2c(c1)OCCO2)c1ccc(C(C)C)cc1 | 68.1
COc1ccc(-c2nnc(NC(=O)C(C)C)s2)c(OC)c1 | 96

*Q* Data request, read-out viability, for COc1ccc(-n2ncc3c(N(C)C4CCCCC4)ncnc32)cc1
*A* 85.5

---

# test.protocol: RAM signaling pathway blockade in yeast – S. cerevisiae, Pdr1DBD-CYC8 efflux-inhibited sensitized strain, primary screen (AID 1298);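 further: 0% = DMSO untreated cells without growth and 100% = 10 µM 1-NA-PP1 full growth; higher means more yeast growth rescued from 5-FOA killing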
# test.context: S. cerevisiae cbk1-as DSE1-URA3 strain, 5-FOA growth OD615, 2 d; at 50 µM; active compounds read high
As shown below, each of these compounds has a reported RAM network inhibition value.
Use % as the unit, but write only the number.

Worked cases, answers included:
compound | RAM network inhibition (%)
COc1ccc(C2=CC(c3ccc(Cl)cc3)n3cnnc3N2)cc1OC (stereo unspecified) | 0.78
Cc1nc(-c2ccc3c(c2)OCO3)cs1 | 2.38
NC(=O)C1CCN(C(=O)c2cc3ccccn3n2)CC1 | 1.35

*Q* Data request, read-out RAM network inhibition, for CCCOC(=O)C1=C(C)NC2=C(C(=O)C(C(=O)OC)C(C)C2)C1c1ccc(N(CC)CC)cc1 (stereo unspecified)
*A* 1.46

---

As shown below, each of these compounds has a reported growth inhibition value.
# test.protocol: OD615 S. cerevisiae growth inhibition, permissive medium, pilot counter-assay, permissive growth control for S. cerevisiae lifespan shortening project (AID 705)
# test.context: OD615, 24 h, at 10 µM, active compounds read high
Use % as the unit, but write only the number.

Worked cases, answers included:
compound | observed.value
CC(=O)CC(=O)Nc1cccc2c1CCCC2 | -1.4
CNC(=O)C1CC(=O)N(c2ccc(C)cc2)C1 (stereo unspecified) | -11.6
CCOC(=O)N1CCN(C(=O)C2CCN(Cc3nc(-c4ccccc4C)oc3C)CC2)CC1 | -13.5
Cn1c(=O)oc2cc(S(=O)(=O)N3CCCC(C(=O)Nc4ccc5c(c4)OCCO5)C3)ccc21 (stereo unspecified) | -0.19
COc1ccc(OC)c(N(CC(=O)NC2CC2)S(=O)(=O)c2ccc(C)cc2)c1 | -13.6
O=C(NCCc1ccc(Cl)cc1)C1CC(=O)N(C2CCCCC2)C1 (stereo unspecified) | -4.04
C=CCn1c(SCCC#N)nnc1-c1ccncc1 | -5.01
CC(C)c1nnc(NC(=O)c2ccc(S(=O)(=O)N3CCOCC3)cc2)s1 | -15
O=C(c1ccc(S(=O)(=O)N2CCOCC2)cc1)N1CCN(c2ccccc2)CC1 | -12.5
COC(=O)c1c(C(=O)OC)c2n(c1C)Cc1ccccc1C2 | -4.47

Let us examine a further case.
*Q* Data request, read-out growth inhibition, for O=C(NCCn1ccc2ccccc21)C1CCCCC1
*A* -13.3
